Would you kindly list IC50 for each of these compounds?
target-desc: human MAdCAM-1 (huMAdCAM-1-Ig chimera); RPMI 8866 cells expressing α4β7 (Homo sapiens, UniProt P13612+P26010)
Construct: RPMI 8866 cells, a B cell lymphoma expressing α4β7; endogenous in cells; host or cells: RPMI 8866 cells (endogenous α4β7)
Sequence (P13612 34-1032, change not shown): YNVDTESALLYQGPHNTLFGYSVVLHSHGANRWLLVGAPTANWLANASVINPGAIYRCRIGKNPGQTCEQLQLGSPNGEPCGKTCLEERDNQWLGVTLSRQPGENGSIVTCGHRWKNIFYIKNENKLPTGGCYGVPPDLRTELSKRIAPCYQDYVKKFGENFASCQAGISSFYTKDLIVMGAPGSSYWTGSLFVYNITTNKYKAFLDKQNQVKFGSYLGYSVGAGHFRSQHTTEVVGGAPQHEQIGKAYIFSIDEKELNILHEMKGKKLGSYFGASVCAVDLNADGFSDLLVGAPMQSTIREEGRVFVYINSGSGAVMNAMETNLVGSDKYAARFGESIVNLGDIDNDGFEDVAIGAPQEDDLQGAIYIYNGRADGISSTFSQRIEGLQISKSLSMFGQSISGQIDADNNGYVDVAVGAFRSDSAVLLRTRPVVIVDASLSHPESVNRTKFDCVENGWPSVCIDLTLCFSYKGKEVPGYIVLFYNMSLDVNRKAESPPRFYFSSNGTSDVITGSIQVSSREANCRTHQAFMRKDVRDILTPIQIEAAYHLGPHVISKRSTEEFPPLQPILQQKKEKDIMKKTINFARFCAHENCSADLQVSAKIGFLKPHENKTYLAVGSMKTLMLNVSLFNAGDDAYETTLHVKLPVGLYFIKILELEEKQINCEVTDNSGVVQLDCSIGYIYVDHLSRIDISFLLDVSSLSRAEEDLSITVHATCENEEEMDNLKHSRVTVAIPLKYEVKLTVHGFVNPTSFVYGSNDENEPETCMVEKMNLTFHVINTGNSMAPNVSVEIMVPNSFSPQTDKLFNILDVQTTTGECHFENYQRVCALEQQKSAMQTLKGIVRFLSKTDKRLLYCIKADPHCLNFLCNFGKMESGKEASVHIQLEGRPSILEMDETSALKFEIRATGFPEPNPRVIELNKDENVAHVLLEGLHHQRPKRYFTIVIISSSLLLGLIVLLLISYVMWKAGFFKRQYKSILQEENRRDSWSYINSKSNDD
Sequence (P26010 20-798, change not shown): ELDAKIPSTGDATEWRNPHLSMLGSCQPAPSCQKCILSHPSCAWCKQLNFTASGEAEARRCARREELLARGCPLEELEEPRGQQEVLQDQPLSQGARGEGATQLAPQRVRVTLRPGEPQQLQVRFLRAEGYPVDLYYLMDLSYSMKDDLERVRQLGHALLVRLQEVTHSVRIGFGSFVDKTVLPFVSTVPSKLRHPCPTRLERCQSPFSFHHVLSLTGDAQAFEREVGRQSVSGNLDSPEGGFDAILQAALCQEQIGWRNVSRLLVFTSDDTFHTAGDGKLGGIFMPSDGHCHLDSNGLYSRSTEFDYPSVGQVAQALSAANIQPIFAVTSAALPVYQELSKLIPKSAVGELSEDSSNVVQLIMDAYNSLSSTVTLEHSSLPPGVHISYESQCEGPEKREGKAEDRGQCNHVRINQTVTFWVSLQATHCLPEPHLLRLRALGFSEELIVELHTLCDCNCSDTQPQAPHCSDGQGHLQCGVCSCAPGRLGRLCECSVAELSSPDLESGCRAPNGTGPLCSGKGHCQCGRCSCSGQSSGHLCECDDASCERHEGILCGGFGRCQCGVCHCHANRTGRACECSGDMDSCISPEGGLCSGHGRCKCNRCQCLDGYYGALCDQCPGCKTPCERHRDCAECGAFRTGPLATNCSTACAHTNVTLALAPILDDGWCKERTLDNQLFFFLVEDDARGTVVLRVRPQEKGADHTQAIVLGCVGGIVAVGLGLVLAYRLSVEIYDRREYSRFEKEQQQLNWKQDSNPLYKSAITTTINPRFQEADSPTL
measurement-protocol: huMAdCAM-1-Ig/RPMI 8866 Adhesion Assay
Assay type: cell-based
protocol-conditions: Table 7, R1-Leu-Asp-Thr-R2, read-out: hMAdCAM IC50
Just the number in nM, nothing appended.

Ask: Value lookup for IC50; key = CC(C)C[C@H](NC(=O)c1cc2ccccc2cn1)C(=O)N[C@@H](CC(=O)O)C(=O)N[C@H](C(=O)N1CCC(C)OC1C)[C@@H](C)O (stereo partly drawn)
Reply: 970

Ask: Next: CC(C)C[C@H](NC(=O)c1cc2ccccc2o1)C(=O)N[C@@H](CC(=O)O)C(=O)N[C@H](C(=O)NC1CCc2ccccc21)[C@@H](C)O (stereo partly drawn)
Reply: 1500

Ask: Let us now turn to CC(C)C[C@H](NC(=O)c1cc2ccccc2cn1)C(=O)N[C@@H](CC(=O)O)C(=O)N[C@H](C(=O)NC1CCCCCCC1)[C@@H](C)O
Reply: 1300

Ask: // next record CC(C)C[C@H](NC(=O)c1cc2ccccc2cn1)C(=O)N[C@@H](CC(=O)O)C(=O)N[C@H](C(=O)N1CCc2ccccc2C1)[C@@H](C)O
Reply: 780

Ask: Then this compound: CC(C)C[C@H](NC(=O)c1cc2ccccc2cn1)C(=O)N[C@@H](CC(=O)O)C(=O)N[C@H](C(=O)NCCC1=CCCCC1)[C@@H](C)O
Reply: 640

Ask: // repeat for CC(C)C[C@H](NC(=O)c1cc2ccccc2cn1)C(=O)N[C@@H](CC(=O)O)C(=O)N[C@H](C(=O)NCCO)[C@@H](C)O and report
Reply: 1500

Ask: Next up: Cc1cccc(CNC(=O)[C@@H](NC(=O)[C@H](CC(=O)O)NC(=O)[C@H](CC(C)C)NC(=O)c2cc3ccccc3cn2)[C@@H](C)O)c1
Reply: 810

Ask: Ok, now CC(C)C[C@H](NC(=O)c1cc2ccccc2cn1)C(=O)N[C@@H](CC(=O)O)C(=O)N[C@H](C(=O)N[C@@H](C)c1cccc2ccccc12)[C@@H](C)O
Reply: 970

Ask: Entry to check: CC(C)C[C@H](NC(=O)c1cc2ccccc2cn1)C(=O)N[C@@H](CC(=O)O)C(=O)N[C@H](C(=O)NC1CC1)[C@@H](C)O
Reply: 3800

###

target-desc: murine MAdCAM-1 (MAdCAM-1/mCk fusion protein); α4β7-bearing HUT 78 cells (Homo sapiens, UniProt P13612+P26010)
Construct: host or cells: HUT 78 cells (endogenous α4β7); The MAdCAM-1/mCk partner was made in house in baculovirus-infected Sf9 insect cells, used as neat supernatant and captured by rat anti-mCk antibody
measurement-protocol: Adhesion of HUT 78 cells to MAdCAM-1/mCk fusion protein bound via capture antibody
Format: cell-based
protocol-conditions: HUT 78 cell adhesion to MAdCAM-1/mCk; average of two determinations; read-out: IC50
Peptide text beside a SMILES is read from it.
Lab note - cut at 500 µM for IC50: 1 (yes) if strictly below, 0 (no) if not.

Ask: I wonder whether CC(C)C[C@H](NC(=O)[C@H](CO)NC(=O)[C@@H](NC(=O)[C@H](CC(=O)O)NC(=O)[C@H](CC(C)C)NC(=O)CC(c1ccccc1)(c1ccccc1)c1ccccc1)[C@@H](C)O)C(N)=O [Example 37, Tphp-Leu-Asp-Thr-Ser-Leu] has IC50 below 500 µM. Can you tell?
Reply: 1 (yes)

Ask: Entry CC(C)C[C@H](NC(=O)[C@H](CO)NC(=O)[C@@H](NC(=O)[C@H](CC(=O)O)NC(=O)[C@H](CC(C)C)NC(=O)C1C(C)(C)C1(C)C)[C@@H](C)O)C(N)=O [Example 25, Tpc-Leu-Asp-Thr-Ser-Leu] please
Reply: 1 (yes)

Ask: Check CC(C)C[C@H](NC(=O)[C@H](CO)NC(=O)[C@@H](NC(=O)[C@H](CC(=O)O)NC(=O)[C@H](CC(C)C)NC(=O)C(c1ccccc1)c1ccccc1)[C@@H](C)O)C(N)=O [Example 31, Dpa-Leu-Asp-Thr-Ser-Leu] too.
Reply: 1 (yes)

Ask: CC(C)C[C@H](NC(=O)[C@H](CO)NC(=O)[C@@H](NC(=O)[C@H](CC(=O)O)NC(=O)[C@H](CC(C)C)NC(=O)CCCCCc1ccccc1)[C@@H](C)O)C(N)=O [Example 18, Phx-Leu-Asp-Thr-Ser-Leu] , same question.
Reply: 0 (no)

Ask: Same lookup for C[C@@H](O)[C@H](NC(=O)[C@H](CC(=O)O)NC(=O)c1ccc2ccc3cccc4ccc1c2c34)C(N)=O [Example 52, Pca-Asp-Thr] , please.
Reply: 1 (yes)

Ask: Also CC(C)C[C@H](NC(=O)[C@H](CO)NC(=O)[C@@H](NC(=O)[C@H](CC(=O)O)NC(=O)[C@H](CC(C)C)NC(=O)c1ccc2cc3ccccc3cc2c1)[C@@H](C)O)C(N)=O [Example 38, 2-Anc-Leu-Asp-Thr-Ser-Leu] ?
Reply: 1 (yes)

Ask: Try this compound too: CC(=O)N[C@@H](CCCNC(=N)N)C(=O)NCC(=O)N[C@@H](CC(C)C)C(=O)N[C@@H](CC(=O)O)C(=O)N[C@H](C(=O)N[C@@H](CO)C(N)=O)[C@@H](C)O [Example 12, Ac-Arg-Gly-Leu-Asp-Thr-Ser] (Ac-RGLDTS-NH2)
Reply: 0 (no)

Ask: Next compound up: CC(C)C[C@H](NC(=O)[C@H](CO)NC(=O)[C@@H](NC(=O)[C@H](CC(=O)O)NC(=O)[C@H](CC(C)C)NC(=O)Cc1cccc2ccccc12)[C@@H](C)O)C(N)=O [Example 21, Npa-Leu-Asp-Thr-Ser-Leu]
Reply: 0 (no)

Data provenance: patent US20020103111A1
